- test: OD615 S. cerevisiae growth inhibition, permissive medium, pilot counter-assay, permissive growth control for S. cerevisiae lifespan shortening project (AID 705)
- details: OD615, 24 h, at 10 µM, stronger effect = higher value
property: growth inhibition (%)

- molecule: "Cc1cc(C)nc(SCC(=O)Nc2ccc(S(=O)(=O)Nc3onc(C)c3C)cc2)n1"
  result_value: -5.04
- molecule: "CCOc1ccc(-n2c(Cc3cc(=O)[nH]c(=O)[nH]3)nnc2SCc2cccnc2)cc1"
  result_value: 2.83
- molecule: "CCNc1nc(NCC)nc(Oc2ccc(OCC)nn2)n1"
  result_value: -15.2
- molecule: "CN1CCN(Cc2c(O)ccc3c(=O)c(Oc4ccccc4Cl)c(C(F)(F)F)oc23)CC1"
  result_value: -4.67
- molecule: "CCN(CC)S(=O)(=O)c1ccc(C(=O)C(C#N)c2ccccn2)cc1 (stereo unspecified)"
  result_value: -12.8
- molecule: "O=C(NC1CC1)c1ccc(CS(=O)(=O)c2c(Cl)cccc2Cl)o1"
  result_value: 3.79
- molecule: "CS(=O)(=O)N(Cc1ccc(C(=O)NCc2ccco2)cc1)c1ccccc1"
  result_value: -6.5
- molecule: "OC(COc1ccc2ccccc2c1)CN1CCN(c2ccc(F)cc2)CC1 (stereo unspecified)"
  result_value: 3.06
- molecule: "CCN1CCN(CCNC(=O)c2ccc(CS(=O)(=O)c3c(Cl)cccc3Cl)o2)CC1"
  result_value: 5.83
- molecule: "O=C(Nc1ccc(S(=O)(=O)N2CCOCC2)cc1)c1ccc(Cl)cc1"
  result_value: -7.83
- molecule: "Nc1ncnc2c1ncn2C1CCC(CO)C(O)C1 (stereo unspecified)"
  result_value: 3.96

----------
- test: reducers of endogenous Her2 protein level, primary screen, SKBR3 breast tumor cells, AlphaScreen, ATP viability (AID 461);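 note: percent of carrier control wells set as 100% viability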
- details: 18-24 h, measured here: SKBR3 viability, ATP luminescence, at 10 µM
Cut-off 90% on viability: below means yes, at or above means no.

- compound: "O=C(CCNC(=O)Cn1ccc2ccccc2c1=O)NCCN1CCc2ccccc2C1"
  classification: "no"
- compound: "CCn1c(=O)cc(OCC(=O)NC2CCCCC2)c2ccccc21"
  classification: "yes"
- compound: "COC(=O)CSc1cc(C)nc(NC(C)=O)n1"
  classification: "no"
- compound: "COc1cccc(Cn2c(OCC3CCCO3)nc3c2c(=O)n(C)c(=O)n3C)c1 (centres undefined)"
  classification: "yes"
- compound: "Cc1cc(=O)n(CC(C)C)c(O)c1C#N"
  classification: "no"
- compound: "CC(=O)N(C)C1(c2nnnn2CCOC(=O)Nc2cccc3ccccc23)CCCC1"
  classification: "no"
- compound: "CCOc1ccc(C(=O)N2CCN(c3ccccc3)CC2)cc1OCC"
  classification: "no"
- compound: "CCCn1cnc2c(c1=O)c1nc3ccccc3nc1n2Cc1ccccc1OC"
  classification: "no"
- compound: "CC1/C(=N/O)C(CN(C)C)C2CC1C2(C)C (centres undefined)"
  classification: "no"
- compound: "FC(F)Sc1nnc(-c2cccs2)n1-c1ccccc1"
  classification: "no"
- compound: "CCOC(=O)CSc1nnc(CCc2nc3ccccc3[nH]2)n1C"
  classification: "no"
- compound: "Cc1cc(C)c(S(=O)(=O)Nc2cccnc2)c(C)c1"
  classification: "no"
- compound: "Nc1nnnn1/N=C/c1ccccn1"
  classification: "yes"
- compound: "Cc1oc(-c2ccccc2F)nc1CS(=O)(=O)CC(=O)NCCCN1CCc2ccccc2C1"
  classification: "yes"
- compound: "O=C(CN1CCN(Cc2ccc3c(c2)OCO3)CC1)Nc1ccc2c(c1)OCCO2"
  classification: "no"
- compound: "CCOC(=O)c1cc(C)sc1N1C(=O)C2C3C=CC(C3)C2C1=O (centres undefined)"
  classification: "no"
- compound: "CCOC(=O)N1CCN(C(=O)C2c3cc(OC)c(OC)cc3C(=O)N3CCc4ccccc4C23)CC1 (centres undefined)"
  classification: "no"
- compound: "CCOC(=O)N1CCC(NC(=O)CS(=O)(=O)Cc2nc(-c3ccccc3C)oc2C)CC1"
  classification: "no"
- compound: "COC(=O)Nc1nnc(CCc2ccccc2)s1"
  classification: "no"
- compound: "CCn1c(=O)cc(OCC(=O)Nc2cc(C)ccn2)c2ccccc21"
  classification: "yes"
- compound: "CCCC(=O)N(c1ccc2oc(=O)sc2c1)S(=O)(=O)c1ccccc1"
  classification: "yes"
- compound: "CCOC(=O)N1CCN(C(=O)CSc2cc(C)nc3c(-c4ccccc4OC)c(C)nn23)CC1"
  classification: "yes"
- compound: "C[C@]12C=CC(=O)C=C1CC[C@H]1[C@@H]3C[C@@H](O)[C@](O)(C(=O)CO)[C@@]3(C)C[C@H](O)[C@@]12F"
  classification: "no"
- compound: "COc1ccccc1CNC(=O)N[C@@H](Cc1ccccc1)C(=O)O"
  classification: "no"
- compound: "CCC(C)(C)n1nnnc1C(c1cc2cc(OC)ccc2[nH]c1=O)N1CCc2ccccc21 (centres undefined)"
  classification: "no"
- compound: "CN1CCN2c3ccccc3Cc3ccccc3C2C1 (centres undefined)"
  classification: "yes"
- compound: "CCCC(=O)Nc1ncnc2c1ncn2[C@@H]1O[C@@H]2COP(=O)(O)O[C@H]2[C@H]1OC(=O)CCC"
  classification: "no"
- compound: "CC(C)[C@H](NC(=O)[C@@H]1CSCN1C(=O)OC(C)(C)C)C(=O)NCC1CCC(C(=O)O)CC1 (some centres undefined)"
  classification: "no"
- compound: "COc1ccc(C2=Nn3c(nnc3-c3ccccc3)SC2)cc1OC"
  classification: "no"
- compound: "C[C@]12CC[C@@H]3c4ccc(O[C@@H]5O[C@H](C(=O)O)[C@@H](O)[C@H](O)[C@H]5O)cc4CC[C@H]3[C@@H]1C[C@@H](O)[C@@H]2O"
  classification: "no"
- compound: "CCN(CC)S(=O)(=O)c1ccc(NC2CCCc3ccccc32)nc1 (centres undefined)"
  classification: "yes"
- compound: "CC(=O)c1cc(Cl)ccc1OC(=O)c1ccco1"
  classification: "no"
- compound: "O=c1c2ccccc2nnn1CSc1nnc2sc3ccccc3n12"
  classification: "no"
- compound: "O=C(O)COc1ccc(Oc2ccccc2)cc1"
  classification: "no"
- compound: "CN1CCCN=C1COC(=O)C(O)(c1ccccc1)C1CCCCC1 (centres undefined)"
  classification: "no"

----------
Quick reference: viability of the listed items.
- test: growth inhibitors of H69AR lung tumor, primary screen, human, duplicate replicates (AID 580);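 note: 100% = mean luminescence of untreated wells and 0% = no signal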
- details: H69AR lung tumor cells viability, ATP luminescence, 72 h; at 10 µM; stronger effect = lower value

- compound: "CC(n1cnnn1)C12CC3CC(CC(C3)C1)C2 (stereo unspecified)"
  viability [%]: 96
- compound: "COCCN(C(=O)c1csnn1)C(C(=O)NC(C)(C)C)c1cccc(OC)c1 (stereo unspecified)"
  viability [%]: 97.9
- compound: "Nc1cc(C(=O)O)ccc1Nc1ccc(F)c(F)c1"
  viability [%]: 105
- compound: "Cc1ccc(-c2nnn(CC(=O)N(CC(=O)NC3CCCCC3)c3cnc4ccccc4c3)n2)o1"
  viability [%]: 96.5
- compound: "COCCNC(=O)CN1CCN(C(c2ccccc2)c2ccccc2)CC1"
  viability [%]: 93.1
- compound: "CC(=O)OCC(=O)[C@@]12OC3(CCCC3)O[C@@H]1C[C@H]1[C@@H]3CCC4=CC(=O)C=C[C@]4(C)[C@@]3(F)[C@@H](O)C[C@@]12C"
  viability [%]: 83.1
- compound: "O=C(CCN1C(=O)COc2ccccc21)N1CCN(c2ccccn2)CC1"
  viability [%]: 106
- compound: "O=C(COC(=O)C1CC1)c1c[nH]c2ccccc12"
  viability [%]: 115
- compound: "CCN(CCO)C1CC(=O)N(c2ccccc2C)C1=O (stereo unspecified)"
  viability [%]: 101
- compound: "CCCn1c(=O)[nH]c(=O)c2[nH]cnc21"
  viability [%]: 100
- compound: "O=C(OCc1cc2ccccc2[nH]c1=O)c1ccco1"
  viability [%]: 100

----------
- test: RAM signaling pathway blockade in yeast – S. cerevisiae, Pdr1DBD-CYC8 efflux-inhibited sensitized strain, primary screen (AID 1298);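 note: 0% = DMSO untreated cells without growth and 100% = 10 µM 1-NA-PP1 full growth; higher means more yeast growth rescued from 5-FOA killing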
- details: S. cerevisiae cbk1-as DSE1-URA3 strain, 5-FOA growth OD615, 2 d; at 50 µM; stronger effect = higher value
The entries below are paired with their reported RAM network inhibition.
property: RAM network inhibition (%)

- compound: "COc1ccc2[nH]c(C)c(CN3CCC(C)CC3)c(=O)c2c1"
  property: "RAM network inhibition"
  reading_unit: "%"
  result_value: 2.42
- compound: "COc1ccccc1N(CC(=O)Nc1c(C)cccc1C)S(C)(=O)=O"
  property: "RAM network inhibition"
  reading_unit: "%"
  result_value: 3.12
- compound: "Cc1nc2ccccc2c2oc(C(=O)N3CCc4ccccc43)cc12"
  property: "RAM network inhibition"
  reading_unit: "%"
  result_value: -0.73
- compound: "C=CCSc1nc2c(cnn2-c2ccc(C)c(C)c2)c(=O)[nH]1"
  property: "RAM network inhibition"
  reading_unit: "%"
  result_value: 0.11
- compound: "CC(=O)c1ccc(N2CCN(C(=O)c3cc4c(=O)n(C)c5ccccc5c4n3C)CC2)cc1"
  property: "RAM network inhibition"
  reading_unit: "%"
  result_value: 2.91
- compound: "O=C(Nc1nnc(-c2ccc3c(c2)CCCC3)o1)c1ccccc1Cl"
  property: "RAM network inhibition"
  reading_unit: "%"
  result_value: 4.48
- compound: "Cc1c(C(=O)NCC2CCCO2)oc2ccc(S(=O)(=O)N3CC(C)CC(C)C3)cc12 (stereo unspecified)"
  property: "RAM network inhibition"
  reading_unit: "%"
  result_value: 4.28
- compound: "CSC1=NCCN1C(=O)c1ccc(Br)o1"
  property: "RAM network inhibition"
  reading_unit: "%"
  result_value: 7.19
- compound: "O=C(c1c(F)cccc1F)N1CCN(c2cccc(C(F)(F)F)c2)CC1"
  property: "RAM network inhibition"
  reading_unit: "%"
  result_value: 4.98
- compound: "CC1CCN(c2c(NCc3ccc(C(=O)NCC4COc5ccccc5O4)cc3)c(=O)c2=O)CC1 (stereo unspecified)"
  property: "RAM network inhibition"
  reading_unit: "%"
  result_value: 4.87
- compound: "COc1ccc(NC(=O)c2oc3ccccc3c2C)c(OC)c1"
  property: "RAM network inhibition"
  reading_unit: "%"
  result_value: 7.99
